# System: F. polymorphum
# procedure_details: Agar dilution MIC, anaerobic microorganisms
# Type: cell-based
# condition_parameters: 48 h; F. polymorphum; read-out: MIC

# molecule, MIC
rows = [
    ("CCn1cc(C(=O)O)c(=O)c2cc(F)c(N3CCNCC3)cc21 [50,297]", "> 10 µg/mL"),
    ("CCn1cc(C(=O)O)c(=O)c2cc(F)c(-c3cc(C)nc(C)c3)cc21 [Win 52,522]", "0.5 µg/mL"),
    ("CCn1cc(C(=O)O)c(=O)c2ccc(-c3cc(C)nc(C)c3)cc21 [Win 35,439]", "4 µg/mL"),
    ("CCn1cc(C(=O)O)c(=O)c2cc(F)c(N3CCN(C)CC3)cc21 [50,150]", "8 µg/mL"),
    ("CCn1cc(C(=O)O)c(=O)c2ccc(-c3ccncc3)cc21 [35,213]", "> 10 µg/mL"),
]

###

# Test system: B. oralis
# procedure_details: Agar dilution MIC, anaerobic microorganisms
# Format: cell-based
# condition_parameters: Hoylesella oralis, 48 h; B. oralis; read-out: MIC
Recorded MIC, one value per entry.

# compound_structure, system_tested, comparison_operator, MIC [µg/mL]
data = [
    ("CCn1cc(C(=O)O)c(=O)c2cc(F)c(N3CCN(C)CC3)cc21", "B. oralis", "=", 4),
    ("CCn1cc(C(=O)O)c(=O)c2ccc(-c3cc(C)nc(C)c3)cc21", "B. oralis", ">", 10),
    ("CCn1cc(C(=O)O)c(=O)c2ccc(-c3ccncc3)cc21", "B. oralis", ">", 10),
    ("CCn1cc(C(=O)O)c(=O)c2cc(F)c(N3CCNCC3)cc21", "B. oralis", "=", 4),
    ("CCn1cc(C(=O)O)c(=O)c2cc(F)c(-c3cc(C)nc(C)c3)cc21", "B. oralis", "=", 4),
]

###

Record set of MIC for target or system Campylobacter sputorum.
observable: MIC (µg/mL)

# molecule, comparison_operator, assay_result
data = [
    ("CCn1cc(C(=O)O)c(=O)c2ccc(-c3cc(C)nc(C)c3)cc21 [Win 35,439]", ">", 10),
    ("CCn1cc(C(=O)O)c(=O)c2cc(F)c(N3CCN(C)CC3)cc21 [50,150]", "=", 4),
    ("CCn1cc(C(=O)O)c(=O)c2cc(F)c(-c3cc(C)nc(C)c3)cc21 [Win 52,522]", "=", 8),
    ("CCn1cc(C(=O)O)c(=O)c2cc(F)c(N3CCNCC3)cc21 [50,297]", "=", 2),
    ("CCn1cc(C(=O)O)c(=O)c2ccc(-c3ccncc3)cc21 [35,213]", ">", 10),
]

###

Read-out record for Wolinella recta: MIC

# compound_structure, system_tested, result_units, MIC
data = [
    ("CCn1cc(C(=O)O)c(=O)c2cc(F)c(N3CCN(C)CC3)cc21", "Wolinella recta", "µg/mL", 0.25),
    ("CCn1cc(C(=O)O)c(=O)c2ccc(-c3cc(C)nc(C)c3)cc21", "Wolinella recta", "µg/mL", 0.5),
    ("CCn1cc(C(=O)O)c(=O)c2cc(F)c(N3CCNCC3)cc21", "Wolinella recta", "µg/mL", 0.12),
    ("CCn1cc(C(=O)O)c(=O)c2cc(F)c(-c3cc(C)nc(C)c3)cc21", "Wolinella recta", "µg/mL", 0.12),
    ("CCn1cc(C(=O)O)c(=O)c2ccc(-c3ccncc3)cc21", "Wolinella recta", "µg/mL", 0.5),
]

All values here come from patent US4698350A.
